Numbers sourced from ChEMBL document CHEMBL1144431.

- System Tested: Delta-type opioid receptor (Rattus norvegicus)
- Sequence (P33533 whole entry): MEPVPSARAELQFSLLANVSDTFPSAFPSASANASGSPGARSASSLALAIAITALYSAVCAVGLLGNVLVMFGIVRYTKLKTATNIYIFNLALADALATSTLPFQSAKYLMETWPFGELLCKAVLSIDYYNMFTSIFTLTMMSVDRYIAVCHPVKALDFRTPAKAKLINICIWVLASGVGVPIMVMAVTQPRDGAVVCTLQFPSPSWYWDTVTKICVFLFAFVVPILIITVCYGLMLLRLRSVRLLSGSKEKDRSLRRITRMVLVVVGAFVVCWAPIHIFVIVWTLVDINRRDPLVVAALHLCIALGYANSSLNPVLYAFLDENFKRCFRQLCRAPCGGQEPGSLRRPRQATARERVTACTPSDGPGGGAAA
- Test: Inhibition of [3H]naloxone binding to rat brain homogenate Opioid receptor delta
pKi: −log10 of the molar value.
Catalogue of pKi readings, one per entry.
Measured Attribute: pKi

- Compound: "CC(C)[C@H](NC(=O)[C@H](CC(=O)O)NC(=O)[C@H](Cc1ccccc1)NC(=O)[C@@H](C)NC(=O)[C@@H]1Cc2ccc(O)cc2CN1)C(=O)N[C@H](C(=O)NCC(N)=O)C(C)C"
  Measured Attribute: "pKi"
  Result: 6.52
- Compound: "C[C@@H](NC(=O)[C@@H]1Cc2ccc(O)cc2CN1)C(=O)N[C@@H](Cc1ccccc1)C(=O)NCC(=O)N[C@@H](Cc1ccc(O)cc1)C(=O)N1CCC[C@H]1C(=O)N[C@@H](CO)C(N)=O"
  Measured Attribute: "pKi"
  Result: "< 5.00"
- Compound: "C[C@@H](NC(=O)[C@@H]1Cc2cc(O)ccc2CN1)C(=O)N[C@@H](Cc1ccccc1)C(=O)NCC(=O)N[C@@H](Cc1ccc(O)cc1)C(=O)N1CCC[C@H]1C(=O)N[C@@H](CO)C(N)=O"
  Measured Attribute: "pKi"
  Result: "< 5.00"

---

Observed log10 of Ki values for Mu-type opioid receptor (Rattus norvegicus, UniProt P33535) are listed in what follows.
Measured Attribute: log10 of Ki (log10 of the value in nM)

- Molecule: "C[C@@H](NC(=O)[C@@H](N)Cc1ccc(O)cc1)C(=O)N[C@@H](Cc1ccccc1)C(=O)NCC(=O)N[C@@H](Cc1ccc(O)cc1)C(=O)N1CCC[C@H]1C(=O)N[C@@H](CO)C(N)=O [DERMORPHIN]"
  log10 of Ki: 0.38
- Molecule: "C[C@@H](NC(=O)[C@@H]1Cc2cc(O)ccc2CN1)C(=O)N[C@@H](Cc1ccccc1)C(=O)N[C@@H](Cc1ccccc1)C(N)=O"
  log10 of Ki: 1.76
- Molecule: "NC(=O)[C@H](Cc1ccccc1)NC(=O)[C@H](Cc1ccccc1)NC(=O)[C@@H]1CCCN1C(=O)[C@@H]1Cc2cc(O)ccc2CN1"
  log10 of Ki: 2.33
- Molecule: "CC(C)[C@H](NC(=O)[C@H](CC(=O)O)NC(=O)[C@H](Cc1ccccc1)NC(=O)[C@@H](C)NC(=O)[C@@H](N)Cc1ccc(O)cc1)C(=O)N[C@H](C(=O)NCC(N)=O)C(C)C [DELTORPHIN C]"
  log10 of Ki: 3.23
- Molecule: "C[C@@H](NC(=O)[C@@H]1Cc2ccc(O)cc2CN1)C(=O)N[C@@H](Cc1ccccc1)C(=O)NCC(=O)N[C@@H](Cc1ccc(O)cc1)C(=O)N1CCC[C@H]1C(=O)N[C@@H](CO)C(N)=O"
  log10 of Ki: 3.21
- Molecule: "C[C@@H](NC(=O)[C@@H]1Cc2cc(O)ccc2CN1)C(=O)N[C@@H](Cc1ccccc1)C(=O)NCC(=O)N[C@@H](Cc1ccc(O)cc1)C(=O)N1CCC[C@H]1C(=O)N[C@@H](CO)C(N)=O"
  log10 of Ki: 2.40
